Values compiled from PubChem BioAssay.

Target: Torsin-1A-interacting protein 1 (Homo sapiens) (UniProt Q5JTV8)
Sequence (Q5JTV8 whole entry, looked up): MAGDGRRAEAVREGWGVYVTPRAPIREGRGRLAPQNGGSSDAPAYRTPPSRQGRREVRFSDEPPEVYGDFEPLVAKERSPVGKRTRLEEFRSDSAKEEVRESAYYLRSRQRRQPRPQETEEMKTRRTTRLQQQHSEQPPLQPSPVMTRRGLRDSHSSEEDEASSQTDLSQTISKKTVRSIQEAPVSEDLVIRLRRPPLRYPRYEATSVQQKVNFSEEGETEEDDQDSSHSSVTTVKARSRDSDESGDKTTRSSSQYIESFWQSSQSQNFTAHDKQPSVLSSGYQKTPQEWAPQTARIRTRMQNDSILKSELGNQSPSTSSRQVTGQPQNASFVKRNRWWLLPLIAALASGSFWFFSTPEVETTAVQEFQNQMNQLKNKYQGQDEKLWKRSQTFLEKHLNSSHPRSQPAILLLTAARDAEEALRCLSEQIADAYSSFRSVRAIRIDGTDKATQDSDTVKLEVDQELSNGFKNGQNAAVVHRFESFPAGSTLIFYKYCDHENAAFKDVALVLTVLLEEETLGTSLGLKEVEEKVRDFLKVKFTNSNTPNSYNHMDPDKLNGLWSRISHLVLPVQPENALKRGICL
Assay: LAP1 binders from COS7 cell lysate, primary screen, small-molecule microarray, 635/667 nm fluorescence (AID 1116)
Details: COS7-hLAP1 lysate binding, 635 nm fluorescence, higher = more signal
Parameter threshold = 0.3. Response is Condition met when composite z-score meets or exceeds it, else Condition not met.

- compound: "CCOC(=O)C[C@H]1[C@H](OC(=O)c2cc3ccccc3oc2=O)[C@@H](NC(=O)c2ccc(-c3ccccc3)cc2)c2cc(OCCCO)ccc2N1C(=O)c1ccccc1"
  class assignment: "Condition met"
- compound: "C#CCN([C@@H](Cc1ccc(O)cc1)C(=O)OC)[C@@H](/C=C/C1CC1)[C@H](O)Cc1ccccc1"
  class assignment: "Condition not met"
- compound: "COc1ccc(CCNC(=O)[C@@H]2c3ccccc3C(=O)N(Cc3cc(C(F)(F)F)cc(C(F)(F)F)c3)[C@H]2c2ccc(CO)cc2)cc1"
  class assignment: "Condition met"
- compound: "CC(=O)NCCCC[C@@H]1NC(=O)[C@@H]2C[C@H](C(=O)NCCCC[N+](C)(C)C)[C@H](c3ccc(O)cc3)N2C1=O"
  class assignment: "Condition met"
- compound: "N#Cc1ccc(NN2C(C(O)c3ccc(F)cc3)C=CC3C(=O)N(c4ccccc4)C(=O)C32)cc1 (configuration not stated)"
  class assignment: "Condition met"
- compound: "C=CCNC(=O)[C@H]1[C@@H]2C(=O)O[C@@H](c3ccccc3)[C@@H](c3ccccc3)N2[C@@H](c2ccc(O)cc2)[C@]12C(=O)Nc1ccc(C#CC3(O)CCCCCC3)cc12"
  class assignment: "Condition met"
- compound: "CCCC[C@@H]1C[C@H]1[C@@H](NC(=O)c1cccs1)c1ccc(C(F)(F)F)cc1"
  class assignment: "Condition not met"
